Data origin, for the record: patent EP2790511B1

IC50 for assorted compounds
Molecular target: hROMK (hKir1.1) (Homo sapiens, UniProt P48048)
Construct: expressed in transfected cells
Sequence (P48048 1-391): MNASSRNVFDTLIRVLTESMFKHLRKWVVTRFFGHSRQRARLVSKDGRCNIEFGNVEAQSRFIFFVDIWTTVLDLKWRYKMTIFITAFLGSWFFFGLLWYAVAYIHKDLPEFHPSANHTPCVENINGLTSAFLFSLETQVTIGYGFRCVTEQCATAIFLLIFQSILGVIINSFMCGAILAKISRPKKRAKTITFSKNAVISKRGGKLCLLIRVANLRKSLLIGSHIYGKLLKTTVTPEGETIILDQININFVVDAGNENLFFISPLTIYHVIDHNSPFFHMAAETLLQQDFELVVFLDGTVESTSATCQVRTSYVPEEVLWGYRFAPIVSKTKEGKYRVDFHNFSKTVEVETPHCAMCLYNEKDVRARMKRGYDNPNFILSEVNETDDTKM
Experiment: Thallium Flux Assay
Assay type: cell-based
Conditions: HEK293 cells stably expressing hROMK (hKir1.1), FLIPR-Tetra; read-out: Thallium Flux IC50
Method: Cell Culture Conditions- HEK293 cells stably expressing hROMK (hKir1.1) were grown at 37°C in a 10%CO2 humidified incubator in complete growth media: Dulbecco's Modified Eagle Medium supplemented with non-essential amino acids, Penicillin/Streptomycin/Glutamine, G418 and FBS. […] Data Calculation- The fluorescence intensity of wells containing 3 µM of a standard control ROMK inhibitor of the present invention is used to define the ROMK-sensitive component of thallium flux. […]

{"Mol": "Cc1c([C@H]2CN3CCN(C(=O)Cc4ccc(-n5cnnn5)nc4)C[C@H]3CO2)ccc2nonc12", "IC50, µM": 0.2}
{"Mol": "Cc1c([C@@H]2CN3CCN(C(=O)Cc4ccc(-n5cnnn5)cn4)C[C@H]3CN2)ccc(F)c1C#N", "IC50, µM": 0.25}
{"Mol": "Cc1c([C@H]2CN3CCN(C(=O)Cc4ccc(-n5cnnn5)cn4)C[C@H]3CO2)ccc(F)c1C#N", "IC50, µM": 0.09}
{"Mol": "COc1cc([C@H]2CN3CCN(C(=O)Cc4cnc(-n5cnnn5)nc4)C[C@H]3CO2)ccc1C#N", "IC50, µM": 0.19}
{"Mol": "Cc1c(C#N)cccc1[C@H]1CN2CCN(C(=O)Cc3cnc(-n4cnnn4)nc3)C[C@H]2CO1", "IC50, µM": 0.32}
{"Mol": "Cc1c([C@@H]2CN3CCN(C(=O)Cc4ccnc(-n5cnnn5)c4)C[C@H]3CO2)ccc(F)c1C#N", "IC50, µM": 0.34}
{"Mol": "O=C1OCCc2cc([C@@H]3CN4CCN(C(=O)Cc5cnc(-n6cnnn6)cn5)C[C@H]4CO3)ccc21", "IC50, µM": 0.5}
{"Mol": "N#Cc1ccc([C@@H]2CN3CCN(C(=O)Cc4ccc(-n5cnnn5)nc4)C[C@H]3CO2)cc1F", "IC50, µM": 0.37}
{"Mol": "N#Cc1c(F)ccc([C@@H]2CN3CCN(C(=O)Cc4ccc(-n5cnnn5)cn4)C[C@H]3CO2)c1F", "IC50, µM": 0.1}
{"Mol": "Cc1nc(-n2cnnn2)ncc1CC(=O)N1CCN2C[C@@H](c3ccc(F)c(C#N)c3C)OC[C@H]2C1", "IC50, µM": 0.2}
{"Mol": "N#Cc1cc([C@@H]2CN3CCN(C(=O)Cc4cnc(-n5cnnn5)nc4)C[C@H]3CN2)ccc1F", "IC50, µM": 0.24}
{"Mol": "Cc1c([C@@H]2CN3CCN(C(=O)Cc4ccc(-n5cnnn5)nc4)C[C@H]3CO2)cccc1-n1cnnn1", "IC50, µM": 0.48}
{"Mol": "Cc1cc(-n2cnnn2)ncc1CC(=O)N1CCN2C[C@@H](c3ccc4c(c3)CCOC4=O)OC[C@@H]2C1", "IC50, µM": 0.17}
{"Mol": "N#Cc1c(F)ccc([C@H]2CN3CCN(C(=O)Cc4ccc(-n5cnnn5)nc4)C[C@H]3CO2)c1Cl", "IC50, µM": 0.07}

###

Molecular target: hROMK (hKir1.1) (Homo sapiens)
Construct: expressed in transfected cells
Test: Thallium Flux Assay
Type: cell-based
Conditions: HEK293 cells stably expressing hROMK (hKir1.1), FLIPR-Tetra; read-out: Thallium Flux IC50
Description: Cell Culture Conditions- HEK293 cells stably expressing hROMK (hKir1.1) were grown at 37°C in a 10%CO2 humidified incubator in complete growth media: Dulbecco's Modified Eagle Medium supplemented with non-essential amino acids, Penicillin/Streptomycin/Glutamine, G418 and FBS. […] Data Calculation- The fluorescence intensity of wells containing 3 µM of a standard control ROMK inhibitor of the present invention is used to define the ROMK-sensitive component of thallium flux. […]
pIC50: −log10 of the molar value.
pIC50 for assorted compounds

{"Mol": "Cc1c([C@@H]2CN3CCN(C(=O)Nc4ccc(-n5cnnn5)nc4)C[C@@H]3CO2)ccc(F)c1C#N", "pIC50": 6.85}
{"Mol": "O=C(Cc1ccc(-n2cnnn2)nc1)N1CCN2C[C@@H](c3cccc(-n4cnnn4)c3)OC[C@@H]2C1", "pIC50": 6.47}
{"Mol": "C[C@@H]1Cc2cc([C@]3(C)CN4CCN(C(=O)Cc5ccc(-n6cnnn6)nc5)C[C@H]4CO3)ccc2C(=O)O1", "pIC50": 6.46}
{"Mol": "N#Cc1c(F)ccc([C@@H]2CN3CCN(C(=O)Cc4ccc(-n5cnnn5)nc4)C[C@H]3CO2)c1Cl", "pIC50": 7.30}
{"Mol": "Cc1c([C@@H]2CN3CCN(C(=O)Cc4ccc(-n5cnnn5)nc4)C[C@H]3CS2)ccc2c1COC2=O", "pIC50": 6.42}
{"Mol": "N#Cc1c(F)ccc([C@H]2CN3CCN(C(=O)Cc4ccc(-n5cnnn5)nc4)C[C@H]3CO2)c1F", "pIC50": 6.92}
{"Mol": "Cc1c([C@@H]2CN3CCN(C(=O)Cc4ccc(-n5cnnn5)nc4)C[C@H]3CN2)ccc(F)c1C#N", "pIC50": 7.22}
{"Mol": "Cc1c([C@H]2CN3CCN(C(=O)Cc4ccc(-n5cnnn5)cn4)C[C@H]3CO2)csc1C#N", "pIC50": 6.41}
{"Mol": "COc1cc([C@@H]2CN3CCN(C(=O)Cc4cnc(-n5cnnn5)cc4C)C[C@@H]3CO2)ccc1C#N", "pIC50": 6.60}
{"Mol": "Cc1c([C@H]2CN3CCN(C(=O)Cc4cncc(-n5cnnn5)c4)C[C@H]3CO2)ccc(F)c1C#N", "pIC50": 6.74}
{"Mol": "Cc1nc(CC(=O)N2CCN3C[C@@H](c4ccc(F)c(C#N)c4C)OC[C@@H]3C2)ccc1-n1cnnn1", "pIC50": 6.74}
{"Mol": "COc1cc([C@@H]2CN3CCN(C(=O)Cc4cnc(-n5cnnn5)nc4)C[C@H]3CO2)ccc1C#N", "pIC50": 6.41}
{"Mol": "Cc1cc([C@H]2CN3CCN(C(=O)Cc4ccc(-n5cnnn5)nc4)C[C@@H]3CO2)c(C)c(C#N)c1F", "pIC50": 6.52}
{"Mol": "Cc1c([C@@H]2CN3CCN(C(=O)Nc4ccc(-n5cnnn5)nc4)C[C@H]3CO2)ccc(F)c1C#N", "pIC50": 6.80}
{"Mol": "COc1cc([C@H]2CN3CCN(C(=O)Cc4ccc(-n5cnnn5)nc4)C[C@@H]3CO2)ccc1C#N", "pIC50": 6.59}
{"Mol": "Cc1c([C@H]2CN3CCN(C(=O)Cc4cnc(-n5cnnn5)nc4)C[C@H]3CN2)ccc(F)c1C#N", "pIC50": 6.92}

###

Target: hROMK (hKir1.1) (Homo sapiens, UniProt P48048)
Construct: expressed in transfected cells
Experiment: Thallium Flux Assay
Format: cell-based
Conditions: Thallium Flux IC50
Assay Metric: IC50

{"Compound": "Cc1c([C@@H]2CN3CCN(C(=O)Cc4ccc(-n5nnnc5C)cn4)C[C@H]3CO2)ccc(F)c1C#N", "Assay Metric": "IC50", "Observed": "170 nM"}
{"Compound": "Cc1c([C@H]2CN3CCN(C(=O)Cc4ccc(-n5cnnn5)nc4)C[C@@H]3CO2)ccc2c1COC2=O", "Assay Metric": "IC50", "Observed": "160 nM"}
{"Compound": "Cc1c([C@H]2CN3CCN(C(=O)Cc4ccc(-n5cnnn5)nc4)C[C@H]3CO2)ccc(F)c1C#N", "Assay Metric": "IC50", "Observed": "70 nM"}
{"Compound": "O=C1OCc2c1ccc([C@@H]1CN3CCN(C(=O)Cc4ccc(-n5cnnn5)nc4)C[C@H]3CO1)c2Cl", "Assay Metric": "IC50", "Observed": "670 nM"}
{"Compound": "Cc1c(C#N)cccc1[C@H]1CN2CCN(C(=O)Cc3ccc(-n4cnnn4)nc3)C[C@H]2CO1", "Assay Metric": "IC50", "Observed": "130 nM"}
{"Compound": "N#Cc1c(F)ccc([C@H]2CN3CCN(C(=O)Cc4ccc(-n5cnnn5)nc4)C[C@@H]3CO2)c1F", "Assay Metric": "IC50", "Observed": "220 nM"}
{"Compound": "N#Cc1cc([C@@H]2CN3CCN(C(=O)Cc4ccc(-n5cnnn5)nc4)C[C@H]3CO2)c(F)cc1F", "Assay Metric": "IC50", "Observed": "160 nM"}
{"Compound": "Cc1nc(-n2cnnn2)ccc1CC(=O)N1CCN2C[C@H](c3cccc(C#N)c3C)OC[C@@H]2C1", "Assay Metric": "IC50", "Observed": "200 nM"}
{"Compound": "COc1ccc([C@@H]2CN3CCN(C(=O)Cc4cnc(-n5cnnn5)nc4)C[C@H]3CO2)c(C)c1C#N", "Assay Metric": "IC50", "Observed": "330 nM"}
{"Compound": "Cc1c([C@@H]2CN3CCN(C(=O)Cc4ccc(-n5cnnn5)nc4)C[C@@H]3CCO2)ccc(F)c1C#N (single isomer, unassigned)", "Assay Metric": "IC50", "Observed": "240 nM"}
